// data source = PubChem BioAssay AID751

Test system: 26S proteasome (yeast, GFP-tagged, ATP-dependent disassembly)
Assay comment: inhibitors of ATP-driven 26S proteasome dissociation, primary screen, biochemical, bead-based flow cytometry, GFP-tagged proteasome (AID 751);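 note: plate controls were ATP control with full disassembly for no effect and ATP-gamma-S intact proteasomes for full effect; higher percent means more bead fluorescence retained so stronger block of disassembly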
Condition context: anti-FLAG beads, active compounds read high, concentration not given here
The campaign covered roughly 24,000 compounds. About 40 (0.2%) were called active. The sample as a whole holds a higher share of actives than the screen did.
Could you please report measured inhibition of disassembly for the items listed next?
Answers are plain numbers, in %.

Solved cases below.
[[record]]
compound = "CN1C(=O)c2ccccc2C(C(=O)NCCCN2CCCC2)C1c1c[nH]c2ccccc12 (stereo not drawn)"
observable = "inhibition of disassembly"
quantitative_readout = 1.77

[[record]]
compound = "CCOC(=O)Cn1c(=O)oc2cc(S(=O)(=O)N(C)Cc3ccco3)ccc21"
observable = "inhibition of disassembly"
quantitative_readout = 0.3

[[record]]
compound = "O=C(CN1CCN(C(=O)c2cccc(F)c2)CC1)Nc1ccccc1F"
observable = "inhibition of disassembly"
quantitative_readout = 2.43

[[record]]
compound = "O=C(c1ccccc1)c1ccc2nc(N3CCCCC3)c3nncn3c2c1"
observable = "inhibition of disassembly"
quantitative_readout = 3.43

[[record]]
compound = "CCCCN(CC)C(=O)CN(C)S(=O)(=O)c1cccc2nsnc12"
observable = "inhibition of disassembly"
quantitative_readout = -0.83


List reported inhibition of disassembly for each of these compounds:
1. Cc1cccc2c1N(CC(=O)OC(C)C)C(=O)C2=O
2. Cc1ccc(-n2ncc3c(=O)[nH]cnc32)c(C)c1
3. COc1cc(C2C(C(=O)Nc3ccccc3OC)=C(C)Nc3ncnn32)ccc1O (stereo not drawn)

Out:
1. 1.8
2. -2.48
3. -1.23

List reported inhibition of disassembly for each of these compounds:
1. NS(=O)(=O)c1cc2c(cc1Cl)NC(C(Cl)Cl)NS2(=O)=O (stereo not drawn)
2. Cc1nc2sc(C(c3ccco3)N3CCC4(CC3)OCCO4)c(O)n2n1 (stereo not drawn)
3. O=C1c2ccncc2C(=O)N1C1CCCCC1
4. COc1ccc(C2C(C(=O)Nc3ccccc3OC)=C(C)Nc3nnnn32)c(OC)c1 (stereo not drawn)

Out:
1: -0.98; 2: -1.33; 3: -0.82; 4: -0.27

List reported inhibition of disassembly for each of these compounds:
1. Cc1ccc(N(C(=O)CC2NC(=O)NC2=O)C2(C(=O)NC3CCCC3)CCCCC2)cc1 (stereo not drawn)
2. COc1ccc2c(c1)CCc1c(C(=O)N3CCCC3)noc1-2
3. COc1ccc(NC(=O)CN2CCN(S(=O)(=O)c3ccc(F)cc3)CC2)cc1Cl
4. CCOc1cc(S(=O)(=O)NCc2ccc3c(c2)OCO3)ccc1F
5. CC(NC(=O)CN1CCN(Cc2ccc(Cl)cc2)C1=O)c1ccc2c(c1)OCCO2 (stereo not drawn)
6. CCCn1cc(SCC(N)=O)c2ccccc21

Out:
-0.11
-0.25
0.32
-0.11
0.26
-0.93

List reported inhibition of disassembly for each of these compounds:
1. O=C(NCc1cccs1)c1ccc2c(c1)ncn2C1CCCC1
2. CCOC(=O)CN1CC23C=CC(O2)C(C(=O)Nc2ccc(F)cc2)C3C1=O (stereo not drawn)
3. C=CCOc1ccc(C2/C(=C(\O)c3c(C)[nH]c(C(=O)OC)c3C)C(=O)C(=O)N2CCN(C)C)cc1 (stereo not drawn)

Out:
1. 0.01
2. 0.62
3. -2.37

List reported inhibition of disassembly for each of these compounds:
1. O=C(CN1C(=O)C2C3C=CC(C3)C2C1=O)NCCc1ccccc1Cl (stereo not drawn)
2. Cc1nnc(SCC(=O)N(C(C)C)C(C)C)nc1C
3. CC(=O)NC1CC2CCCC(C1)N2CC(=O)Nc1ccccc1 (stereo not drawn)
4. CCCN(CCC)CCNC(=O)c1cc2c(C)nc3ccccc3c2o1
5. Cn1cccc1Cc1nnc(SCC(=O)NCc2ccc3c(c2)OCO3)n1CCc1ccccc1
6. CNC(=O)Nc1cc(C(C)(C)C)no1

Out:
1: -3.34; 2: 0.76; 3: -0.95; 4: 5.25; 5: 1.04; 6: -0.8

List reported inhibition of disassembly for each of these compounds:
1. CCCCNC(=O)c1c[nH]c2ccc(S(=O)(=O)Nc3ccc(OCC)cc3)cc2c1=O
2. Cc1cccc(NC(=O)CSc2nnc(NC(=O)CN3CCOCC3)s2)c1
3. CCOc1ccc(N(CC(=O)NCc2ccc(OC)cc2)S(=O)(=O)c2c(C)noc2C)cc1
4. CCn1ncc(C2=NOC(C(=O)Nc3ccccc3C(=O)OC)C2)c1C (stereo not drawn)
5. O=C(c1cc(-c2ccccc2O)on1)N1CCCC1
6. CN(C)CCCNC(=O)c1ccc2[nH]c3ccccc3c2c1
7. CCOC(=O)N1CCN(C(=O)c2n[nH]c(=O)c3ccccc23)CC1

Out:
1. 0.53
2. 0.22
3. -1.57
4. 0.71
5. 3.8
6. -0.71
7. -0.81

List reported inhibition of disassembly for each of these compounds:
1. CCOC(=O)N1CCC(Nc2c(NCCCN3CCN(c4ccc(OC)cc4)CC3)c(=O)c2=O)CC1
2. CCCn1nnc2sc3c(c2c1=O)CCC(C)C3 (stereo not drawn)

Out:
1. 1.14
2. -0.93

List reported inhibition of disassembly for each of these compounds:
1. COc1ccc(S(=O)(=O)NC2(C(F)(F)F)N=C3SCCN3C2=O)cc1 (stereo not drawn)
2. CC(=O)Nc1nonc1-c1nc2ccccc2n1Cc1ccccn1

Out:
1: 0.29; 2: 5.18
